Test: Bioavailability in mouse at 1 mg/kg, iv and 2 mg/kg, po
Type: ADME, organism-based
Conditions: in vivo
testReadout: bioavailability (%)

Consider the reported bioavailability for these compounds:
O=C(CCc1cnn(-c2ccc(O)cc2)c1)Nc1ccccc1C(=O)O
21
O=C(CCc1cnn(-c2ccc(O)cn2)c1)NC1=C(C(=O)O)CCCC1
46

[P] O=C(CCc1ccc(-c2ccc(O)cc2Cl)cc1)Nc1ccccc1C(=O)O
[Q] Cc1c(CC(C)C(=O)NC2=C(C(=O)O)CCCC2)cnn1-c1ccc(O)cc1 (centres undefined)
// returns P or Q , whichever has the lower bioavailability Refer to your chosen item by its label in the answer.
P
(P: 4.6%, Q: 52%)

Reference for the values: ChEMBL document CHEMBL1155496
